Conditions: buffer; pH 7.4; 200.0 µM
log10(solubility kinetic) by entry:
Scale: log10; quantity: solubility kinetic; unit before log: µg/mL

1. CC1CCN(C(=O)c2ccc(-c3ccccc3Cl)o2)CC1 = 0.86
2. Cc1ccc(N(C)C2=NC(=O)CS2)cc1Cl = 1.54
3. O=[N+]([O-])c1ccc2oc(C(O)c3cccc(Cl)c3)cc2c1 (stereo not given) = 1.29
4. O=Cc1c[nH]c2ccc(C(=O)c3ccccc3)cc12 = 0.63
5. O=C(O)CC(NC(=O)C1CCCCC1)c1ccc(OC2CCCC2)cc1 (stereo not given) = 1.73

The reported value for "O=C(Nc1cc([N+](=O)[O-])ccc1N1CCCC1)c1ccccc1" in terms of log10(solubility kinetic) is 0.18

The reported value for CC(CC(=O)Nc1ccc2c(c1)OCO2)c1ccccc1 (stereo not given) in terms of log10(solubility kinetic) is 1.59

---

Details: buffer; pH 7.4; 200.0 µM
solubility kinetic by entry:
Please give a number only; it is taken to be in µg/mL.

1. Cc1cc(NC(=O)C(C)Oc2ccc(Cl)cc2Cl)no1 (configuration not stated) = 9.1
2. COc1ccc(NS(=O)(=O)c2cc(N)ccc2N2CCOCC2)cc1 = 13.2
3. Cc1ccc2c(CN(C)Cc3ccc(Cl)cc3)cc(=O)oc2c1 = 1.9
4. O=C(NC1CCCc2ccccc21)C1CCCC1 (configuration not stated) = 27.3

The reported value for "Cc1ccc(S(=O)(=O)NCc2ccccc2C)cc1" in terms of solubility kinetic is 20.4

The reported value for CCC(=O)c1ccc(OCC(=O)OCC(=O)NCC2CCCO2)cc1 (configuration not stated) in terms of solubility kinetic is 49.5

---

Conditions: buffer; pH 7.4; 200.0 µM
measurement.name: solubility kinetic

Example results:
1. CC(=O)c1sc(C(C)(C)C)cc1NC(=O)/C=C/C(=O)O = 40 µg/mL
2. CCOc1c(C)cc(S(=O)(=O)NCc2cccnc2)c(C)c1C = 45.2 µg/mL
3. N#Cc1ccccc1S(=O)(=O)N1CCN(C(=O)C2CC(=O)N(c3ccc4c(c3)OCCO4)C2)CC1 (stereo not given) = 68.6 µg/mL

The reported value for "COc1ccc(CNC(=O)COC(=O)c2cccs2)cc1" in terms of solubility kinetic is 29.1 µg/mL

The reported value for "CCS(=O)(=O)N1CCC(C(=O)Oc2ccc(C)c(C)c2)CC1" in terms of solubility kinetic is 38.5 µg/mL

The reported value for O=C(O)C1CCCCC1C(=O)NCCc1ccc(F)cc1 (stereo not given) in terms of solubility kinetic is > 44 µg/mL

The reported value for "Cl.N=c1ccn(Cc2ccc([N+](=O)[O-])cc2)cc1" in terms of solubility kinetic is > 39.9 µg/mL

The reported value for "Cc1nc2c(C)c(C)c(C)c(C)c2nc1C" in terms of solubility kinetic is < 0.2 µg/mL

---

Conditions: buffer; pH 7.4; 200.0 µM
measurement.name: solubility kinetic (µg/mL)
Please give a number only; it is taken to be in µg/mL.

1) O=C(Nc1cc2c3c(c1)CC(=O)N3CCC2)c1c(F)cccc1F = 9.6
2) CC1CCc2cc(F)ccc2N1S(=O)(=O)c1ccc(F)cc1 (stereo unspecified) = 2.4
3) CCOC(=O)Cc1csc(NC(=O)CCSc2ccccc2)n1 = 38.5

The reported value for "Cc1cccc(N2CCN(C(=O)c3cc4cc(F)ccc4[nH]3)CC2)c1C" in terms of solubility kinetic is 0.6

The reported value for "Cc1ccc(S(=O)(=O)NCCOc2cc(C)ccc2C)cc1" in terms of solubility kinetic is 14.4
